assay: Binding affinity to polyA-polyU (unknown origin) assessed as change in melting temperature at 0.5 compound to ds-polynucleotide ratio by spectrophotometric method
Readout: ΔTm (°C)

Below, each entry is followed by its recorded ΔTm result.
Input Smiles: Cl.Cl.Clc1ccc2c(Oc3ccc(C4=NCCCN4)cc3)ccnc2c1
ΔTm, °C: 1.32
//
Input Smiles: Cl.Cl.Clc1ccc2c(Oc3ccc(C4=NCCN4)cc3)ccnc2c1
ΔTm, °C: 1.49

I = Cl.Cl.Clc1ccc2c(Oc3ccc(-c4nc5ccc(C6=NCCN6)cc5[nH]4)cc3)ccnc2c1
II = CC(C)NC(=N)c1ccc2nc(-c3ccc(Oc4ccnc5cc(Cl)ccc45)cc3)[nH]c2c1.Cl.Cl.Cl
query: Parameter check: reported ΔTm is higher for which label, I or II ? Choose, then provide that item's label.
result: I

---

test system: Calf thymus DNA; test: Binding affinity to calf thymus DNA assessed as change in melting temperature at 0.3 compound to ds-polynucleotide ratio by spectrophotometric method; format: nucleic-acid assay; conditions: Bos taurus
Readout: ΔTm (°C)

a = CC(C)CNC(=N)c1ccc2nc(-c3ccc(Oc4ccnc5cc(Cl)ccc45)cc3)[nH]c2c1.Cl.Cl.Cl
b = Cl.Cl.N=C(NC1CCCC1)c1ccc2nc(-c3ccc(Oc4ccnc5cc(Cl)ccc45)cc3)[nH]c2c1
c = Cl.Cl.Cl.N=C(N)c1ccc2nc(-c3ccc(OCCNc4ccnc5cc(Cl)ccc45)cc3)[nH]c2c1
query: Please put the 3 compounds above in a list ordered by falling ΔTm. Quick reminder: the answer is the labels in the order asked.
result: c, b, a

---

tested on: Calf thymus DNA; assay: Binding affinity to calf thymus DNA assessed as change in melting temperature at 0.1 compound to ds-polynucleotide ratio by spectrophotometric method; assay type: nucleic-acid assay; details: Bos taurus
Readout: ΔTm (°C)

Examples with their reported ΔTm follow.
Input Smiles: Cl.Cl.Cl.N=C(N)c1ccc2nc(-c3ccc(OCCNc4ccnc5cc(Cl)ccc45)cc3)[nH]c2c1
ΔTm (°C): 4.84
--
Input Smiles: Cl.Cl.N=C(NC1CCCC1)c1ccc2nc(-c3ccc(Oc4ccnc5cc(Cl)ccc45)cc3)[nH]c2c1
ΔTm (°C): 1.41
--
Input Smiles: CC(C)CNC(=N)c1ccc2nc(-c3ccc(OCCNc4ccnc5cc(Cl)ccc45)cc3)[nH]c2c1.Cl.Cl.Cl
ΔTm (°C): 4.31
--
Input Smiles: CC(C)CNC(=N)c1ccc(Oc2ccnc3cc(Cl)ccc23)cc1.Cl.Cl.Cl
ΔTm (°C): 1.91
--
Input Smiles: Cl.Cl.Clc1ccc2c(Oc3ccc(C4=NCCCN4)cc3)ccnc2c1
ΔTm (°C): 2.08

I = N#Cc1ccc2nc(-c3ccc(OCCNc4ccnc5cc(Cl)ccc45)cc3)[nH]c2c1
II = Cl.Cl.Cl.N=C(N)c1ccc2nc(-c3ccc(Oc4ccnc5cc(Cl)ccc45)cc3)[nH]c2c1
query: Kindly identify the item with the lower ΔTm figure among these two: I and II Which one? Tell me its label.
result: II
(II: 2.07 °C, I: 3.96 °C)

A = Cl.Cl.Clc1ccc2c(Oc3ccc(-c4nc5ccc(C6=NCCCN6)cc5[nH]4)cc3)ccnc2c1
B = CC(C)CNC(=N)c1ccc2nc(-c3ccc(Oc4ccnc5cc(Cl)ccc45)cc3)[nH]c2c1.Cl.Cl.Cl
query: ΔTm comparison. Which is larger, A or B ? API: response body contains the label of the selected item.
result: A
(A: 3.3 °C, B: 1.07 °C)
